tested on: EKVX NSCLC; assay: NCI-60 one-dose screen, 48 h (100 = growth as untreated, 0 = no growth, -100 = all killed); settings: 10 µM unless noted
This is part of a sample that, as a whole, favours compounds with a hit. Of some 83,000 tested, about 20% had one in any assay.
Criterion: growth meeting or surpassing 60%. Met: YES. Not met: NO.

## Task Please indicate if the recorded growth for CCCCC1CCc2cccc3c(SCC(=O)N(C)c4ccc(Cl)cc4)cc[n+]1c23 (stereo unspecified) meets or exceeds 60%.
## Result YES

## Task Is it the case that CC[C@@H](C)[C@H](NC(=O)Cn1cc(CNC(=O)[C@@H](NC(=O)OCc2ccccc2)C(C)C)nn1)C(=O)O has growth reaching or exceeding 60%?
## Result YES

## Task Given O=C(COc1cc(O)c2c(=O)cc(-c3ccccc3)oc2c1)Nc1ccccc1 , state whether its growth is at least 60%.
## Result YES

## Task I'd appreciate it if you could say whether CCOC(=O)c1sc(-c2ccc(OS(=O)(=O)C[C@]34CCC(CC3=O)C4(C)C)c(C=O)c2)nc1C has growth at least equal to 60%.
## Result NO

## Task State whether the measured growth reaches 60%, counting equality as reaching it, for CCOC(=O)c1c(C=O)nc2ccccc2c1/C=C/c1ccc(Cl)cc1
## Result YES

## Task Does COC(=O)C1=Nc2ccc(F)cc2/C1=C/c1sc(=S)[nH]c1O have a reported growth of at least 60%?
## Result NO

## Task Tell me whether growth is at least 60% here: Nc1ccc(-c2ccc(-c3ccccc3N)c3[nH]c4ccccc4c23)cc1
## Result NO

## Task Kindly determine if growth recorded for Cc1ccc(Cc2cnc(NC(=O)CN3C(=O)/C(=C\c4ccccc4)SC3=S)s2)cc1 is above or exactly 60%.
## Result YES

## Task Is it the case that C[C@@H](C(=O)NCCCC#Cc1cnc(Nc2ccc(C#N)cc2)nc1NC1CC1)N(C)C(=O)/C=C/CN(C)C has growth reaching or exceeding 60%?
## Result NO

## Task I'd appreciate it if you could say whether CCN1C(=O)N(c2ccccc2)C2NN=c3s/c(=C4\C(=O)N(C(C)C)c5ccccc54)c(=O)n3C21 (stereo unspecified) has growth at least equal to 60%.
## Result NO

## Task Is the recorded value of growth equal to or greater than 60% for this compound? CN1C(=O)N(C)C2(c3ccccc3)OC(=S)NC12c1ccccc1 (stereo unspecified)
## Result YES

## Task Dear colleague, could you confirm whether O=C(Nc1ccc(Cl)cc1F)c1cc(F)ccc1O has growth at or above 60%?
## Result NO

## Task Entry O=c1nc2sc3nc4ccccc4cc3cc-2s1 : is its growth no less than 60%?
## Result NO

## Task Does growth meet or surpass 60% for O=C(Nc1ccc(N2CCNCC2)cc1)c1[nH]ncc1Nc1cc(Oc2ccccc2)ncn1 ?
## Result NO

## Task hey, is growth for this one >= 60%? O=C(Nc1ccc(Br)cc1F)c1cc(Cl)ccc1O
## Result NO

## Task Reported growth at or above 60%? NCCNc1nc2ccc(F)cc2c2c(=O)c3cc(F)ccc3sc12
## Result YES

## Task Hi team, for N[C@@H](CC/[N+]([O-])=N/O)C(=O)O , is the recorded growth at or above 60%?
## Result YES

## Task Reported growth at or above 60%? CCOC(=O)c1c2c(c(C)n1Cc1ccc(OC)cc1)-c1oncc1CC2
## Result YES

## Task Form field: growth at least 60%? Entry: O=c1oc2ccc(-c3ccc(F)cc3F)cc2c(=O)n1-c1cccc(C(F)(F)F)c1
## Result NO

## Task Does Nc1ccc(C2c3ccccc3Oc3ccccc32)cc1 have a reported growth of at least 60%?
## Result YES

## Task Check this compound for growth at or above 60%: CCCSC1=NC2C(N(CC)C(=O)N2CC)N1/N=C/C=C/c1ccccc1[N+](=O)[O-] (stereo unspecified)
## Result NO

## Task Hi, just wondering whether CC(=O)c1ccc(NC(=O)Nc2ccc(S(=O)(=O)Nc3ccc(Cl)nn3)cc2)cc1 shows growth of 60% or higher.
## Result YES

## Task Tell me whether growth is at least 60% here: O=S(=O)(Nc1ncccn1)c1ccc(NC2Nc3nc4ccccc4nc3S2)cc1 (stereo unspecified)
## Result YES

## Task Is reported growth greater than or equal to 60% here: CN1C(=O)N(C)C2(c3ccccc3)n3c(s/c(=C\c4ccccc4)c3=O)=NNC12c1ccccc1 (stereo unspecified)
## Result YES

## Task Check this compound for growth at or above 60%: CCCCC1COc2cccc3c2N1C=C/C3=C\C(=O)N(C)c1ccccc1 (stereo unspecified)
## Result NO

## Task Threshold query (growth >= 60%) on Cc1ccc2cccc(Oc3ccc(Nc4ncnc5onc(-c6ccccc6)c45)cc3)c2n1
## Result YES

## Task Evaluate CCN(CCO)CCNc1ccc(C)c2sc3cc(Cl)ccc3c(=O)c12 : growth at minimum 60%?
## Result YES

## Task Answer whether growth of Nc1ccc(-n2c(=O)oc3ccc(Cl)cc3c2=O)c(Cl)c1 is greater than or equal to 60%.
## Result NO

## Task Record CNC(=O)c1cc(Oc2ccc(CC(=O)Nc3cc(C(C)(C)C)cn3C)cc2)ccn1 ; criterion: growth no lower than 60%. Met?
## Result YES

## Task Determine whether measured growth meets or exceeds 60% for COc1cc(C2C3=C(COC3=O)N(CCO)c3cc4c(cc32)OCCO4)cc(OC)c1O (stereo unspecified)
## Result NO

## Task Is growth for O=C(c1ccccc1)N(CCc1ccc(Cl)cc1)C(=S)N(C(=O)c1ccccc1)c1ccccc1 at or above 60%?
## Result YES

## Task Would you say CNCCNc1nc2ccccc2c2c(=O)c3cc(F)ccc3sc12 shows growth at minimum 60%?
## Result YES

## Task Decide: growth of CCOC(=O)c1c2c(n3cccc(Cl)c13)C(=O)c1ncccc1C2=O >= 60%?
## Result YES

## Task Exam item: decide whether the reported growth for O=c1cc(-c2ccccc2)oc2cc(OCc3cn(Cc4ccc(F)cc4)nn3)cc(OCc3cn(Cc4ccc(F)cc4)nn3)c12 is at least 60%.
## Result NO

## Task Given the entry O=c1oc2ccc(I)cc2c(=O)n1-c1ccc(Cl)cc1F , answer whether its growth meets or surpasses 60%.
## Result NO

## Task Determine whether measured growth meets or exceeds 60% for COc1ccc2occ(C3=C(c4c[nH]c5ccccc45)C(=O)NC3=O)c2c1
## Result NO

## Task growth >= 60% for COc1cc(C=C2C(=O)N(C)C(=O)N(C)C2=O)cc(CN2CCCCC2)c1O ?
## Result YES

## Task Is growth for CC(=S)NC(=O)C(=O)/C=C1/NC(=O)C(=O)S1 at or above 60%?
## Result YES

## Task Textbook exercise: given the entry O=C1c2cc(Cl)ccc2Oc2cc([N+](=O)[O-])ccc2N1c1ccc(F)cc1F , state whether its growth is greater than or equal to 60%.
## Result YES
